Provenance of the data: the supplement of paper PMC8149375

test system: SN12C; test: minimum viability across doses, drug + dasatinib, relative to DMSO (fraction); higher = less growth inhibition; conditions: treatment: drug + dasatinib (fixed dose, not stated); 5 days
Please respond with reported minimum viability across doses for every item in the list.
// print number alone

minimum viability across doses for COc1cc2nccc(Oc3ccc(NC(=O)NC4CC4)c(Cl)c3)c2cc1C(N)=O [E7080 (Lenvatinib)] + Cc1nc(Nc2ncc(C(=O)Nc3c(C)cccc3Cl)s2)cc(N2CCN(CCO)CC2)n1 ?
0.312

// repeat for CC(C)(C)c1cc(/C=C(\C#N)C(N)=S)cc(C(C)(C)C)c1O [Tyrphostin AG 879 (AG 879)] + Cc1nc(Nc2ncc(C(=O)Nc3c(C)cccc3Cl)s2)cc(N2CCN(CCO)CC2)n1 and report
0.706

// repeat for Cl.Cl.Fc1cc(-c2cccc3ncc(-c4cnn(C5CCNCC5)c4)nc23)cc(F)c1CN1CCOCC1 [NVP-BSK805] + Cc1nc(Nc2ncc(C(=O)Nc3c(C)cccc3Cl)s2)cc(N2CCN(CCO)CC2)n1 and report
0.127

// repeat for CC[C@@H]1C(=O)N(C)c2cnc(Nc3ccc(C(=O)N[C@H]4CC[C@H](N5CCN(CC6CC6)CC5)CC4)cc3OC)nc2N1C(C)C [BI6727 (Volasertib)] + Cc1nc(Nc2ncc(C(=O)Nc3c(C)cccc3Cl)s2)cc(N2CCN(CCO)CC2)n1 and report
0.0772

###

tested on: CAKI-1; experiment: AUC of dose-response viability curve, drug + dasatinib, normalised to DMSO (arbitrary (AUC of normalised viability)); higher = less growth inhibition; settings: treatment: drug + dasatinib (fixed dose, not stated); 5 days
Please respond with reported AUC of dose-response viability curve for every item in the list.
// print number alone

# returns recorded AUC of dose-response viability curve (system: CAKI-1) for O=C(NC[C@H](O)CO)c1ccncc1Nc1ccc(I)cc1F + Cc1nc(Nc2ncc(C(=O)Nc3c(C)cccc3Cl)s2)cc(N2CCN(CCO)CC2)n1 [dasatinib]
1.52

// repeat for Clc1ccc(C2(c3ccc(-c4cn[nH]c4)cc3)CCNCC2)cc1 [AT7867] + Cc1nc(Nc2ncc(C(=O)Nc3c(C)cccc3Cl)s2)cc(N2CCN(CCO)CC2)n1 [dasatinib] and report
1.96

// repeat for C=CCc1cccc(/C=N/NC(=O)CN2CCN(Cc3ccccc3)CC2)c1O [PAC-1] + Cc1nc(Nc2ncc(C(=O)Nc3c(C)cccc3Cl)s2)cc(N2CCN(CCO)CC2)n1 [dasatinib] and report
2.07

// repeat for O=C1NC(=O)[C@@H](c2cn3c4c(cccc24)CCC3)[C@@H]1c1c[nH]c2ccccc12 [ARQ 197 (Tivantinib)] + Cc1nc(Nc2ncc(C(=O)Nc3c(C)cccc3Cl)s2)cc(N2CCN(CCO)CC2)n1 [dasatinib] and report
1.56

// repeat for O=C(NOCC(O)CO)c1cc(Br)c(F)c(F)c1Nc1ccc(I)cc1F (configuration not stated) + Cc1nc(Nc2ncc(C(=O)Nc3c(C)cccc3Cl)s2)cc(N2CCN(CCO)CC2)n1 [dasatinib] and report
1.91

// repeat for CC1(C)CCC(c2ccc(Cl)cc2)=C(CN2CCN(c3ccc(C(=O)NS(=O)(=O)c4ccc(N[C@H](CCN5CCOCC5)CSc5ccccc5)c(S(=O)(=O)C(F)(F)F)c4)cc3)CC2)C1 [ABT-263 (Navitoclax)] + Cc1nc(Nc2ncc(C(=O)Nc3c(C)cccc3Cl)s2)cc(N2CCN(CCO)CC2)n1 [dasatinib] and report
2.36

// repeat for O=C(Nc1ccc(OC(F)(F)F)cc1)c1sccc1NCc1ccnc2ccccc12 [OSI-930] + Cc1nc(Nc2ncc(C(=O)Nc3c(C)cccc3Cl)s2)cc(N2CCN(CCO)CC2)n1 [dasatinib] and report
2.23

// repeat for O=C(Nc1cccc(Nc2ncc(Br)c(NCCc3cnc[nH]3)n2)c1)N1CCCC1 [BX-912] + Cc1nc(Nc2ncc(C(=O)Nc3c(C)cccc3Cl)s2)cc(N2CCN(CCO)CC2)n1 [dasatinib] and report
1.8

// repeat for Cn1cnc(N)c2ncnc1-2 [3-Methyladenine] + Cc1nc(Nc2ncc(C(=O)Nc3c(C)cccc3Cl)s2)cc(N2CCN(CCO)CC2)n1 [dasatinib] and report
2.47

// repeat for CC(=O)Nc1nc(C)c(-c2ccc(Cl)c(S(=O)(=O)NCCO)c2)s1 [PIK-93] + Cc1nc(Nc2ncc(C(=O)Nc3c(C)cccc3Cl)s2)cc(N2CCN(CCO)CC2)n1 [dasatinib] and report
2.05

// repeat for COc1cccc(-c2cc(=O)c3ccccc3o2)c1N + Cc1nc(Nc2ncc(C(=O)Nc3c(C)cccc3Cl)s2)cc(N2CCN(CCO)CC2)n1 [dasatinib] and report
2.27

// repeat for C#Cc1cccc(Nc2ncnc3cc(OCCOC)c(OCCO)cc23)c1 + Cc1nc(Nc2ncc(C(=O)Nc3c(C)cccc3Cl)s2)cc(N2CCN(CCO)CC2)n1 [dasatinib] and report
2.09

// repeat for COc1ccc(S(=O)(=O)N(C(C)=O)c2ccccc2/C=C/c2cc[n+]([O-])cc2)cc1 [HMN-214] + Cc1nc(Nc2ncc(C(=O)Nc3c(C)cccc3Cl)s2)cc(N2CCN(CCO)CC2)n1 [dasatinib] and report
1.32

// repeat for CC(C)(C)c1nc(-c2cccc(NS(=O)(=O)c3c(F)cccc3F)c2F)c(-c2ccnc(N)n2)s1 + Cc1nc(Nc2ncc(C(=O)Nc3c(C)cccc3Cl)s2)cc(N2CCN(CCO)CC2)n1 [dasatinib] and report
1.48

// repeat for CC(C)(C)c1cc(NC(=O)Nc2ccc(-c3cn4c(n3)sc3cc(OCCN5CCOCC5)ccc34)cc2)no1 [Quizartinib (AC220)] + Cc1nc(Nc2ncc(C(=O)Nc3c(C)cccc3Cl)s2)cc(N2CCN(CCO)CC2)n1 [dasatinib] and report
2.02

// repeat for Cc1cc(Nc2cc(N3CCN(C)CC3)nc(Sc3ccc(NC(=O)C4CC4)cc3)n2)n[nH]1 [VX-680 (MK-0457, Tozasertib)] + Cc1nc(Nc2ncc(C(=O)Nc3c(C)cccc3Cl)s2)cc(N2CCN(CCO)CC2)n1 [dasatinib] and report
1.6

// repeat for CO[C@H]1CC2CC[C@@H](C)[C@@](O)(O2)C(=O)C(=O)N2CCCC[C@H]2C(=O)O[C@H]([C@H](C)C[C@@H]2CCC(OC(=O)C(C)(CO)CO)[C@H](OC)C2)CC(=O)[C@H](C)/C=C(\C)[C@@H](O)[C@@H](OC)C(=O)[C@H](C)C[C@H](C)/C=C/C=C/C=C/1C (stereo in doubt) [Temsirolimus (Torisel)] + Cc1nc(Nc2ncc(C(=O)Nc3c(C)cccc3Cl)s2)cc(N2CCN(CCO)CC2)n1 [dasatinib] and report
1.42
